experiment: activity coefficient (dimensionless); of the first substance listed, at infinite dilution; xn = mol fraction of the nth substance listed; settings: 333.15 K; 101 kPa; Liquid; Chromatography; x1 = 0
Listed compounds paired with reported activity coefficient
Form field (numeric): enter value without unit.

Recorded result, CCCCCCC [heptane] + CCCC[N+]1(C)CCCC1.O=S(=O)([N-]S(=O)(=O)C(F)(F)F)C(F)(F)F , activity coefficient: 18.4

Recorded result, CCCCO [butan-1-ol] + CCC[N+]1(C)CCCC1.O=S(=O)([N-]S(=O)(=O)C(F)(F)F)C(F)(F)F , activity coefficient: 2.35

Recorded result, CCCCCCCCC [nonane] + CCCC[N+]1(C)CCCC1.O=S(=O)([N-]S(=O)(=O)C(F)(F)F)C(F)(F)F , activity coefficient: 38.3

Recorded result, CC#N [acetonitrile] + CCCC[N+]1(C)CCCC1.O=S(=O)([N-]S(=O)(=O)C(F)(F)F)C(F)(F)F , activity coefficient: 0.51

Recorded result, CCC(C)CC [3-methylpentane] + CCC[N+]1(C)CCCC1.O=S(=O)([N-]S(=O)(=O)C(F)(F)F)C(F)(F)F , activity coefficient: 13.5

Recorded result, C#CCCCCC [1-heptyne] + CCC[N+]1(C)CCCC1.O=S(=O)([N-]S(=O)(=O)C(F)(F)F)C(F)(F)F , activity coefficient: 4.52

Recorded result, CCCCCCCC [octane] + CCC[N+]1(C)CCCC1.O=S(=O)([N-]S(=O)(=O)C(F)(F)F)C(F)(F)F , activity coefficient: 31.1

---

Listed compounds paired with reported activity coefficient
assay: activity coefficient (dimensionless); of the first substance listed, at infinite dilution; xn = mol fraction of the nth substance listed; details: 323.15 K; 101 kPa; Liquid; Chromatography; x1 = 0
Form field (numeric): enter value without unit.

Recorded result, CCC[N+](=O)[O-] [1-nitropropane] + CCC[N+]1(C)CCCC1.O=S(=O)([N-]S(=O)(=O)C(F)(F)F)C(F)(F)F , activity coefficient: 0.77

Recorded result, CCCCO [butan-1-ol] + CCC[N+]1(C)CCCC1.O=S(=O)([N-]S(=O)(=O)C(F)(F)F)C(F)(F)F , activity coefficient: 2.79

Recorded result, CCCCCCCC [octane] + CCCC[N+]1(C)CCCC1.O=S(=O)([N-]S(=O)(=O)C(F)(F)F)C(F)(F)F , activity coefficient: 28.2

Now for a further compound.
Recorded result, CC(C)OC(C)C [diisopropyl ether] + CCC[N+]1(C)CCCC1.O=S(=O)([N-]S(=O)(=O)C(F)(F)F)C(F)(F)F , activity coefficient: 5.88

---

assay: activity coefficient (dimensionless); of the first substance listed, at infinite dilution; xn = mol fraction of the nth substance listed; details: 343.15 K; 101 kPa; Liquid; Chromatography; x1 = 0
Listed compounds paired with reported activity coefficient
Form field (numeric): enter value without unit.

Example entries and their recorded answers appear below.
Recorded result, CC(C)CC(C)(C)C [2,2,4-trimethylpentane] + CCC[N+]1(C)CCCC1.O=S(=O)([N-]S(=O)(=O)C(F)(F)F)C(F)(F)F , activity coefficient: 21.6

Recorded result, c1ccccc1 [benzene] + CCC[N+]1(C)CCCC1.O=S(=O)([N-]S(=O)(=O)C(F)(F)F)C(F)(F)F , activity coefficient: 1.03

Recorded result, ClCCl [dichloromethane] + CCC[N+]1(C)CCCC1.O=S(=O)([N-]S(=O)(=O)C(F)(F)F)C(F)(F)F , activity coefficient: 0.78

---
Recorded result, CCc1ccccc1 [ethylbenzene] + CCCC[N+]1(C)CCCC1.O=S(=O)([N-]S(=O)(=O)C(F)(F)F)C(F)(F)F , activity coefficient: 1.87

---

test: activity coefficient (dimensionless); of the first substance listed, at infinite dilution; xn = mol fraction of the nth substance listed; conditions: 323.15 K; 101 kPa; Liquid; Chromatography; x1 = 0
Listed compounds paired with reported activity coefficient
Form field (numeric): enter value without unit.

Recorded result, CCCCCCCCCCC [undecane] + CCC[N+]1(C)CCCC1.O=S(=O)([N-]S(=O)(=O)C(F)(F)F)C(F)(F)F , activity coefficient: 108

---
Recorded result, CCC[N+](=O)[O-] [1-nitropropane] + CCCC[N+]1(C)CCCC1.O=S(=O)([N-]S(=O)(=O)C(F)(F)F)C(F)(F)F , activity coefficient: 0.74

Recorded result, C1CCCCCC1 [cycloheptane] + CCCC[N+]1(C)CCCC1.O=S(=O)([N-]S(=O)(=O)C(F)(F)F)C(F)(F)F , activity coefficient: 23.9

Recorded result, c1ccccc1 [benzene] + CCC[N+]1(C)CCCC1.O=S(=O)([N-]S(=O)(=O)C(F)(F)F)C(F)(F)F , activity coefficient: 0.99

Recorded result, CCCCCCCCCC [decane] + CCC[N+]1(C)CCCC1.O=S(=O)([N-]S(=O)(=O)C(F)(F)F)C(F)(F)F , activity coefficient: 74.7

Recorded result, C#CCCCCC [1-heptyne] + CCC[N+]1(C)CCCC1.O=S(=O)([N-]S(=O)(=O)C(F)(F)F)C(F)(F)F , activity coefficient: 4.52

Recorded result, CO [methanol] + CCC[N+]1(C)CCCC1.O=S(=O)([N-]S(=O)(=O)C(F)(F)F)C(F)(F)F , activity coefficient: 1.38

---

experiment: activity coefficient (dimensionless); of the first substance listed, at infinite dilution; xn = mol fraction of the nth substance listed; conditions: 323.15 K; 101 kPa; Liquid; Chromatography; x1 = 0
MEASURED_ATTRIBUTE: activity coefficient
Form field (numeric): enter value without unit.

Recorded result, ClC(Cl)(Cl)Cl [tetrachloromethane] + CCCC[N+]1(C)CCCC1.O=S(=O)([N-]S(=O)(=O)C(F)(F)F)C(F)(F)F , activity coefficient: 2.44

---
Recorded result, Cc1ccccc1C [1,2-dimethylbenzene] + CCC[N+]1(C)CCCC1.O=S(=O)([N-]S(=O)(=O)C(F)(F)F)C(F)(F)F , activity coefficient: 1.78

Recorded result, c1ccsc1 [thiophene] + CCCC[N+]1(C)CCCC1.O=S(=O)([N-]S(=O)(=O)C(F)(F)F)C(F)(F)F , activity coefficient: 0.82

---

assay: activity coefficient (dimensionless); of the first substance listed, at infinite dilution; xn = mol fraction of the nth substance listed; settings: 323.15 K; 101 kPa; Liquid; Chromatography; x1 = 0
// returns F unless activity coefficient is strictly below 2, in which case T

Solved entries (count: 5):
Strictly below 2: is that where activity coefficient of CC(C)O [propan-2-ol] + CCC[N+]1(C)CCCC1.O=S(=O)([N-]S(=O)(=O)C(F)(F)F)C(F)(F)F sits? T

Strictly below 2: is that where activity coefficient of CO [methanol] + CCCC[N+]1(C)CCCC1.O=S(=O)([N-]S(=O)(=O)C(F)(F)F)C(F)(F)F sits? T

Strictly below 2: is that where activity coefficient of CCCC(C)=O [pentan-2-one] + CCCC[N+]1(C)CCCC1.O=S(=O)([N-]S(=O)(=O)C(F)(F)F)C(F)(F)F sits? T

Strictly below 2: is that where activity coefficient of C=CCCCC [hex-1-ene] + CCC[N+]1(C)CCCC1.O=S(=O)([N-]S(=O)(=O)C(F)(F)F)C(F)(F)F sits? F

Strictly below 2: is that where activity coefficient of CCCCCCCC [octane] + CCC[N+]1(C)CCCC1.O=S(=O)([N-]S(=O)(=O)C(F)(F)F)C(F)(F)F sits? F

---
Strictly below 2: is that where activity coefficient of CCO [ethanol] + CCC[N+]1(C)CCCC1.O=S(=O)([N-]S(=O)(=O)C(F)(F)F)C(F)(F)F sits? T

---

test: activity coefficient (dimensionless); of the first substance listed, at infinite dilution; xn = mol fraction of the nth substance listed; conditions: 323.15 K; 101 kPa; Liquid; Chromatography; x1 = 0
// classify(record): look up activity coefficient in ranges lo = under 3, med = from 3 up to 9, hi = 9 and over

Solved entries (count: 5):
# bin label for C[N+](=O)[O-] [nitromethane] + CCCC[N+]1(C)CCCC1.O=S(=O)([N-]S(=O)(=O)C(F)(F)F)C(F)(F)F lo

# bin label for CC1CCCC1 [methylcyclopentane] + CCCC[N+]1(C)CCCC1.O=S(=O)([N-]S(=O)(=O)C(F)(F)F)C(F)(F)F med

# bin label for CC(C)CO [2-methyl-1-propanol] + CCC[N+]1(C)CCCC1.O=S(=O)([N-]S(=O)(=O)C(F)(F)F)C(F)(F)F lo

# bin label for C1COCCO1 [1,4-dioxane] + CCC[N+]1(C)CCCC1.O=S(=O)([N-]S(=O)(=O)C(F)(F)F)C(F)(F)F lo

# bin label for C=CCCCC [hex-1-ene] + CCCC[N+]1(C)CCCC1.O=S(=O)([N-]S(=O)(=O)C(F)(F)F)C(F)(F)F med

---
# bin label for CCC(C)CC [3-methylpentane] + CCCC[N+]1(C)CCCC1.O=S(=O)([N-]S(=O)(=O)C(F)(F)F)C(F)(F)F hi

# bin label for C#CCCCCC [1-heptyne] + CCCC[N+]1(C)CCCC1.O=S(=O)([N-]S(=O)(=O)C(F)(F)F)C(F)(F)F med

# bin label for CC1CCCCC1 [methylcyclohexane] + CCCC[N+]1(C)CCCC1.O=S(=O)([N-]S(=O)(=O)C(F)(F)F)C(F)(F)F hi

# bin label for CC(C)CC(C)(C)C [2,2,4-trimethylpentane] + CCC[N+]1(C)CCCC1.O=S(=O)([N-]S(=O)(=O)C(F)(F)F)C(F)(F)F hi
